- experiment-description: physchem
- test-conditions: pH 7.4, aqueous buffer, kinetic from dmso stock
recorded-metric: solubility at 1.5 h

Observe how each entry below is paired with its result.
C[C@H]1[C@@H](O)O[C@@H]2O[C@@]3(C)CC[C@H]4[C@H](C)CC[C@@H]1[C@@]24OO3 [Dihydroartemisinin, reference compound]
≥ 500 µM
CCCN(CCC)CC(O)COc1ccccc1C(=O)Nc1ccccc1 (stereo not shown)
≥ 500 µM
Cc1cc(Nc2ccc(OCc3ccccc3)cc2)nc2cc(O)ccc12
100 to 500 µM

Reported solubility at 1.5 h, molecule Clc1ccc2c(N3CCN(CCCN4CCN(c5ccnc6cc(Cl)ccc56)CC4)CC3)ccnc2c1 [Piperaquine, reference compound] : ____
100 to 500 µM

----------
- System: 3D7-MR4 trophozoite parasite-infected RBCs
- experiment-description: Metabolomic profiling (hydrophilic metabolite changes, UHPLC-MS)
- Format: cell-based, Plasmodium falciparum
- test-conditions: metabolite proline
recorded-metric: Log2(fold change) proline
One number for each entry.

Observe how each entry below is paired with its result.
COc1cc(-c2nc(-c3ccccc3)c(-c3ccccc3)[nH]2)ccc1OCCN(C)C
-0.1946
Cc1cc(Nc2ccc(OCc3ccccc3)cc2)nc2cc(O)ccc12
-0.4365
C[C@H]1Cc2c([nH]c3cc(Cl)c(F)cc23)[C@@]2(N1)C(=O)Nc1ccc(Cl)cc12 [KAE609, reference compound]
0.0000

Find Log2(fold change) proline (3D7-MR4 trophozoite parasite-infected RBCs) for the entry Cl.c1ccc2c(NCCCCCCNc3c4c(nc5ccccc35)CCCC4)c3c(nc2c1)CCCC3
-0.3102

----------
- System: 3D7-MR4 trophozoite parasite-infected RBCs
- experiment-description: Metabolomic profiling (hydrophilic metabolite changes, UHPLC-MS)
- Assay type: cell-based, Plasmodium falciparum
- test-conditions: metabolite UDP-D-glucuronate; log2 fold change
Answer each item with its documented Log2(fold changes) UDP-D-glucuronate.

Could you report Log2(fold changes) UDP-D-glucuronate for every entry in the following list?
1. CN(C(=O)c1cn2c(-c3ccc(C(F)(F)F)cc3)cnc2cn1)c1ccc(C#N)cc1 [KAI407, reference compound]
2. CCCN(CCC)CC(O)COc1ccccc1C(=O)Nc1ccccc1 (centres unmarked)
3. O=C(Nc1ccsc1C(=O)NC1CCCCC1)c1ccc(F)cc1
4. CCCCN(CCCC)CC(O)c1cc(Cl)cc2c1-c1ccc(Cl)cc1/C2=C/c1ccc(Cl)cc1 (centres unmarked) [Lumefantrine, reference compound]
5. CC(C)(C)NCc1cc(Nc2ccnc3cc(Cl)ccc23)c2c(c1O)CCCC2 [Naphtoquine, Naphthoquine, reference compound]
6. O=C(Nc1ccc(N2CCNCC2)cc1)c1ccn2ncc(-c3cccc(Cl)c3)c2n1.O=C(O)C(F)(F)F
7. CCOC(=O)C1=C(C)NC2=C(C(=O)CC(c3ccc(OC)c(OC)c3)C2)C1c1ccccc1Cl (centres unmarked) [GNF-Pf-5660, reference compound]
8. Cc1cc(Nc2ccc(OCc3ccccc3)cc2)nc2cc(O)ccc12

1: 0.0070; 2: -0.0808; 3: -0.0014; 4: 0.0757; 5: 0.1278; 6: -0.6750; 7: 0.0860; 8: -0.0548

----------
- Tested on: 3D7-MR4 trophozoite parasite-infected RBCs
- experiment-description: Metabolomic profiling (hydrophilic metabolite changes, UHPLC-MS)
- Type: cell-based, Plasmodium falciparum
- test-conditions: metabolite serine
Please use yes for Log2(fold change) serine under 0.02 and no for everything else, ties included.

Use the examples below as a reference point.
Cc1ccc(Oc2ncccc2C(=O)Nc2cccc3cccnc23)c(C)c1
yes
CN(C)Cc1ccc(-c2cc3c(-c4ccc(CN(C)C)cc4)ccnc3[nH]2)cc1.O=C(O)C(F)(F)F
no
CC(C)(C)OC(=O)N1CCN(c2ccccc2NC(=O)c2cccc(C(F)(F)F)c2Oc2ccc(F)cc2)CC1
yes

Below 0.02 on Log2(fold change) serine? Entry CC(C)(C)c1ccc2c(c1)CN(Cc1ccc(Cl)cc1)CO2
yes

How about this molecule: Cc1cc(Nc2ccc(S(F)(F)(F)(F)F)cc2)n2nc(C(C)(F)F)nc2n1 [DSM265, reference compound]
yes

How about this molecule: Cl.c1ccc2c(NCCCCCCNc3c4c(nc5ccccc35)CCCC4)c3c(nc2c1)CCCC3
no

How about this molecule: CCOC(=O)C1=C(C)NC2=C(C(=O)CC(c3ccc(OC)c(OC)c3)C2)C1c1ccccc1Cl (centres unmarked) [GNF-Pf-5660, reference compound]
yes

How about this molecule: COc1ccc(C2c3ccc4ccccc4c3Oc3ncn(CCCN(C)C)c(=N)c32)cc1 (centres unmarked)
no

----------
- Tested on: 3D7-MR4 trophozoite parasite-infected RBCs
- experiment-description: Metabolomic profiling (hydrophilic metabolite changes, UHPLC-MS)
- Type: cell-based, Plasmodium falciparum
- test-conditions: metabolite nicotinate
Answer each item with its documented Log2(fold change) nicotinate.

Observe how each entry below is paired with its result.
COc1cc(-c2nc(-c3ccccc3)c(-c3ccccc3)[nH]2)ccc1OCCN(C)C
0.0117
OC(c1cc(C(F)(F)F)nc2c(C(F)(F)F)cccc12)C1CCCCN1 (stereo not shown) [Mefloquine, reference compound]
-0.4821
Cc1cc(Nc2ccc(S(F)(F)(F)(F)F)cc2)n2nc(C(C)(F)F)nc2n1 [DSM265, reference compound]
-0.0300

// switching to the query molecule
Reported Log2(fold change) nicotinate, molecule COCCNCC(O)Cn1c2ccc(Cl)cc2c2cc(Cl)ccc21 (stereo not shown) : ____
1.9078

----------
Answer each item with its documented Log2(fold change) serine.
- Tested on: 3D7-MR4 trophozoite parasite-infected RBCs
- experiment-description: Metabolomic profiling (hydrophilic metabolite changes, UHPLC-MS)
- Assay type: cell-based, Plasmodium falciparum
- test-conditions: metabolite serine
One number for each entry.

Observe how each entry below is paired with its result.
CCCCN(CCCC)CC(O)c1cc(Cl)cc2c1-c1ccc(Cl)cc1/C2=C/c1ccc(Cl)cc1 (centres unmarked) [Lumefantrine, reference compound]
-0.3504
CN(C)c1ccc2nc3ccc(=[N+](C)C)cc-3sc2c1 [Methylene blue, reference compound]
-0.0692
FC(F)(F)c1cccc(Nc2nc3ccccc3nc2Nc2cccc(C(F)(F)F)c2)c1
-0.0943

Could you report Log2(fold change) serine for every entry in the following list?
1. CC(C)(C)NCc1cc(Nc2ccnc3cc(Cl)ccc23)c2c(c1O)CCCC2 [Naphtoquine, Naphthoquine, reference compound]
2. CNc1nc(NCCCN(C)C)c2sc(-c3cccc(C(F)(F)F)c3)cc2n1

1: 0.0398; 2: 0.1402

----------
- System: 3D7-MR4 trophozoite parasite-infected RBCs
- experiment-description: Metabolomic profiling (hydrophilic metabolite changes, UHPLC-MS)
- Type: cell-based, Plasmodium falciparum
- test-conditions: metabolite NADPH
recorded-metric: Log2(fold change) NADPH
Give bare numbers.

Observe how each entry below is paired with its result.
COc1cncc(-c2cncc(N3CCN(c4ccncc4)CC3)n2)c1 [MMV085071]
0.0000
Cc1cc(Nc2ccc(OCc3ccccc3)cc2)nc2cc(O)ccc12 [MMV007181]
2.7260
CN(C)Cc1ccc(-c2cc3c(-c4ccc(CN(C)C)cc4)ccnc3[nH]2)cc1.O=C(O)C(F)(F)F [MMV022224]
1.3580
O=C(Nc1ccc(N2CCNCC2)cc1)c1ccn2ncc(-c3cccc(Cl)c3)c2n1.O=C(O)C(F)(F)F [MMV022478]
-1.0955
C[C@H]1Cc2c([nH]c3cc(Cl)c(F)cc23)[C@@]2(N1)C(=O)Nc1ccc(Cl)cc12 [KAE609, reference compound]
0.3500

Could you report Log2(fold change) NADPH for every entry in the following list?
1. CCOC(=O)C1=C(C)NC2=C(C(=O)CC(c3ccc(OC)c(OC)c3)C2)C1c1ccccc1Cl (centres unmarked) [GNF-Pf-5660, reference compound]
2. CN(C)c1ccc2nc3ccc(=[N+](C)C)cc-3sc2c1 [Methylene blue, reference compound]
3. COc1cc(-c2nc(-c3ccccc3)c(-c3ccccc3)[nH]2)ccc1OCCN(C)C [MMV027496]
4. CC(C)(C)NCc1cc(Nc2ccnc3cc(Cl)ccc23)c2c(c1O)CCCC2 [Naphtoquine, Naphthoquine, reference compound]
5. O=C(Nc1ccsc1C(=O)NC1CCCCC1)c1ccc(F)cc1 [MMV665939]
6. COCCNCC(O)Cn1c2ccc(Cl)cc2c2cc(Cl)ccc21 (centres unmarked) [MMV019017]
7. CCCN(CCC)CC(O)COc1ccccc1C(=O)Nc1ccccc1 (centres unmarked) [MMV006455]

1: 0.0479; 2: 0.5257; 3: 1.8886; 4: -0.1981; 5: 0.2171; 6: 0.4083; 7: 1.2448

Could you report Log2(fold change) NADPH for every entry in the following list?
1. Cc1ccc(Oc2ncccc2C(=O)Nc2cccc3cccnc23)c(C)c1 [MMV020746]
2. COc1ccc(C2c3ccc4ccccc4c3Oc3ncn(CCCN(C)C)c(=N)c32)cc1 (centres unmarked) [MMV667491]
3. CC(C)C[C@@H](/C=C/S(C)(=O)=O)NC(=O)[C@H](CC(C)C)NC(=O)[C@H](Cc1c[nH]c2ccccc12)NC(=O)CN1CCOCC1 [WLL-vs, reference compound]
4. CC(C)(C)c1ccc2c(c1)CN(Cc1ccc(Cl)cc1)CO2 [MMV000442]
5. CC(C)(C)OC(=O)N1CCN(c2ccccc2NC(=O)c2cccc(C(F)(F)F)c2Oc2ccc(F)cc2)CC1 [MMV030666]
6. O=C1C(O)=C([C@H]2CC[C@H](c3ccc(Cl)cc3)CC2)C(=O)c2ccccc21 [Atovaquone, reference compound]
7. Clc1ccc2c(N3CCN(CCCN4CCN(c5ccnc6cc(Cl)ccc56)CC4)CC3)ccnc2c1 [Piperaquine, reference compound]

1. 2.9387
2. 0.1884
3. 0.0976
4. 0.0000
5. 1.2462
6. -0.0085
7. 0.1653

Could you report Log2(fold change) NADPH for every entry in the following list?
1. OC(c1cc(C(F)(F)F)nc2c(C(F)(F)F)cccc12)C1CCCCN1 (centres unmarked) [Mefloquine, reference compound]
2. FC(F)(F)c1ccc(Nc2cc3[nH]c(-c4cccc(C(F)(F)F)c4)nc3cn2)nc1 [MMV675939]
3. CNc1nc(NCCCN(C)C)c2sc(-c3cccc(C(F)(F)F)c3)cc2n1 [MMV668311]
4. FC(F)(F)c1cccc(Nc2nc3ccccc3nc2Nc2cccc(C(F)(F)F)c2)c1 [MMV665794]

[0.3297, -0.4301, 0.0063, 0.2872]

Could you report Log2(fold change) NADPH for every entry in the following list?
1. Cc1cc(Nc2ccc(S(F)(F)(F)(F)F)cc2)n2nc(C(C)(F)F)nc2n1 [DSM265, reference compound]
2. Cl.c1ccc2c(NCCCCCCNc3c4c(nc5ccccc35)CCCC4)c3c(nc2c1)CCCC3 [MMV019555]
3. CCCOCc1cc(CN2CCN(c3cccc(Cl)c3)CC2)c(O)c2ncccc12 [MMV000787]

[0.6400, 0.0000, 0.8357]

Could you report Log2(fold change) NADPH for every entry in the following list?
1. CN(C(=O)c1cn2c(-c3ccc(C(F)(F)F)cc3)cnc2cn1)c1ccc(C#N)cc1 [KAI407, reference compound]
2. CCN(CC)CCn1c(=N)n(CC(O)c2ccc(Cl)c(Cl)c2)c2ccccc21.Cl (centres unmarked) [MMV000248]
3. CCCCN(CCCC)CC(O)c1cc(Cl)cc2c1-c1ccc(Cl)cc1/C2=C/c1ccc(Cl)cc1 (centres unmarked) [Lumefantrine, reference compound]

1: 0.1591; 2: 0.7586; 3: -0.2368

Ref: paper PMC7031696
